Listed here are molecules together with their documented DC50.
# ASSAY_TARGET: endogenous PIP4K2C C-terminally tagged with HiBiT peptide in MOLT-4 cells (Homo sapiens)
# Construct: to C-terminally tag endogenous PIP4K2C with HiBiT peptide; host or cells: MOLT-4 (CRISPR-Cas9 knock-in clone)
# Sequence (Q8TBX8 whole entry): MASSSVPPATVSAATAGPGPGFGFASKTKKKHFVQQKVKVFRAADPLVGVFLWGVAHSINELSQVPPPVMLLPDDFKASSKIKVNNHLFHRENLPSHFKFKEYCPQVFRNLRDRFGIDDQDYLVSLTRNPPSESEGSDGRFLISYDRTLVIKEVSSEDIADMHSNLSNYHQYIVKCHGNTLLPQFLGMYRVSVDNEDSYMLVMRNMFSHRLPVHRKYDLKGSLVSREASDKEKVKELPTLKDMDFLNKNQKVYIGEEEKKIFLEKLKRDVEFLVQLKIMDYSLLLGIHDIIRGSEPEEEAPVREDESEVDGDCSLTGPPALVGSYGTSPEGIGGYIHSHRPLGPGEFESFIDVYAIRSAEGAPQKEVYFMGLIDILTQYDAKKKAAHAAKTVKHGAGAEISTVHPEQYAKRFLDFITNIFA
# MEASUREMENT_NOTES: HiBiT PIP4K2C degradation assay in MOLT-4 cells
# Format: cell-based
# SETTINGS: 24 hours, 10-point dose response, top concentration 10 micromolar, read-out: HiBIT-degradation MOLT4 PIP4k2C 24 hours DC50
METRIC_NAME: DC50

- O=C1CCC(Nc2ccc(N3CCC(CN4CCC5(CC4)CCN(c4cncc(Nc6ncc(Cl)c(N7CCCC(C8CC8)C7)n6)c4)C5=O)CC3)cc2)C(=O)N1 (stereo not drawn): < 500 nM
- Cn1c(=O)n(C2CCC(=O)NC2=O)c2ccc(C3CCN(C(=O)CN4CCC(C(=O)Nc5cncc(Nc6ncc(Cl)c(-c7cccc(C8CC8)c7)n6)c5)CC4)CC3)cc21 (stereo not drawn): < 500 nM
- Cn1c(=O)n(C2CCC(=O)NC2=O)c2cc(OCC(=O)NCCCCCCCCCC(=O)Nc3cncc(Nc4ncc(Cl)c(-c5cccc(-c6ccccc6)c5)n4)c3)ccc21 (stereo not drawn): 1000 to 5000 nM
- O=C1CCC(Nc2ccc(N3CCC(CC(=O)N4CCC5(CC4)CCN(c4cncc(Nc6ncc(Cl)c(N7CCC[C@H](C(F)(F)F)C7)n6)c4)C5=O)CC3)cc2)C(=O)N1 (stereo partly drawn): < 500 nM
- O=C(COc1ccc2c(c1)CN(C1CCC(=O)NC1=O)C2=O)NCCCCCCCCCC(=O)Nc1cncc(Nc2ncc(Cl)c(-c3cccc(-c4ccccc4)c3)n2)c1 (stereo not drawn): < 500 nM
- O=C1CCC(Nc2ccc(C3CCN(CC(=O)N4CCC5(CC4)CCN(c4cncc(Nc6ncc(Cl)c(N7CCC[C@@H](O)C7)n6)c4)C5=O)CC3)cc2)C(=O)N1 (stereo partly drawn): < 500 nM
- O=C(CCCOc1cccc2c1C(=O)N(C1CCC(=O)NC1=O)C2=O)NCCCCCCCC(=O)Nc1cncc(Nc2ncc(Cl)c(-c3cccc(-c4ccccc4)c3)n2)c1 (stereo not drawn): < 500 nM
- O=C1CCC(Nc2ccc(C3CCN(CC(=O)N4CCC5(CC4)CCN(c4cncc(Nc6ncc(Cl)c(-c7cccc(C8CC8)c7)n6)c4)C5=O)CC3)cc2)C(=O)N1 (stereo not drawn): < 500 nM
- O=C1CCC(N2Cc3cc(OCCCCCCCCCCN4CCC5(CC4)CCN(c4cncc(Nc6ncc(Cl)c(-c7cccc(-c8ccccc8)c7)n6)c4)C5=O)ccc3C2=O)C(=O)N1 (stereo not drawn): 500 to 1000 nM
- O=C1CCC(N2Cc3cc(OCCCCCCC(=O)N4CCC5(CC4)CCN(c4cncc(Nc6ncc(Cl)c(-c7cccc(-c8ccccc8)c7)n6)c4)C5=O)ccc3C2=O)C(=O)N1 (stereo not drawn): < 500 nM
- O=C1CCC(N2Cc3cc(OCCCCCC(=O)N4CCC5(CC4)CCN(c4cncc(Nc6ncc(Cl)c(-c7cccc(-c8ccccc8)c7)n6)c4)C5=O)ccc3C2=O)C(=O)N1 (stereo not drawn): < 500 nM
- O=C1CCC(N2Cc3cc(OCCCCCCCCCC(=O)N4CCC5(CC4)CCN(c4cncc(Nc6ncc(Cl)c(-c7cccc(-c8ccccc8)c7)n6)c4)C5=O)ccc3C2=O)C(=O)N1 (stereo not drawn): < 500 nM
- O=C1CCC(N2C(=O)c3cccc(OCCCN4CCN(CCCCCCC(=O)Nc5cncc(Nc6ncc(Cl)c(-c7cccc(-c8ccccc8)c7)n6)c5)CC4)c3C2=O)C(=O)N1 (stereo not drawn): < 500 nM
- O=C1CCC(Nc2ccc(C3CCN(CC(=O)N4CCC5(CC4)CCN(c4cncc(Nc6ncc(Cl)c(-c7cccc(C8CCCC8)c7)n6)c4)C5=O)CC3)cc2)C(=O)N1 (stereo not drawn): < 500 nM
- O=C1CCC(Nc2ccc(C3CCN(CC(=O)N4CCC5(CC4)CCN(c4cncc(Nc6ncc(Cl)c(N7CCC[C@H](C(F)(F)F)C7)n6)c4)C5=O)CC3)cc2)C(=O)N1 (stereo partly drawn): < 500 nM
- O=C1CCC(N2Cc3cc(OCCCCCCCCC(=O)N4CCC5(CC4)CCN(c4cncc(Nc6ncc(Cl)c(-c7cccc(-c8ccccc8)c7)n6)c4)C5=O)ccc3C2=O)C(=O)N1 (stereo not drawn): < 500 nM
- O=C1CCC(N2Cc3cc(C4CCN(C(=O)CN5CCC(C(=O)Nc6cncc(Nc7ncc(Cl)c(-c8cccc(C9CC9)c8)n7)c6)CC5)CC4)ccc3C2=O)C(=O)N1 (stereo not drawn): < 500 nM
- O=C1CCC(N2Cc3c(OCCCCCCCCCC(=O)N4CCC5(CC4)CCN(c4cncc(Nc6ncc(Cl)c(-c7cccc(-c8ccccc8)c7)n6)c4)C5=O)cccc3C2=O)C(=O)N1 (stereo not drawn): < 500 nM
- O=C1CCC(N2Cc3cc(OC4CCN(C(=O)CN5CCC(C(=O)Nc6cncc(Nc7ncc(Cl)c(-c8cccc(C9CC9)c8)n7)c6)CC5)CC4)ccc3C2=O)C(=O)N1 (stereo not drawn): < 500 nM
- O=C1CCC(Nc2ccc(C3CCN(CC(=O)N4CCC5(CC4)CCN(c4cncc(Nc6ncc(Cl)c(N7CCC[C@@H](C(F)(F)F)C7)n6)c4)C5=O)CC3)cc2)C(=O)N1 (stereo partly drawn): < 500 nM
- O=C1CCC(Nc2ccc(C3CCN(CC(=O)N4CCC5(CC4)CCN(c4cncc(Nc6ncc(Cl)c(-c7cccc(C8CCCCC8)c7)n6)c4)C5=O)CC3)cc2)C(=O)N1 (stereo not drawn): < 500 nM
